# Target Or Test System: Prothrombin (Homo sapiens)
# Test: Inhibition of thrombin in human plasma measured after 10 mins by chromogenic substrate hydrolysis assay
Measurement Type: IC50
Remember to quote the unit after the number.

Log: Prothrombin (Homo sapiens), compound O=c1oc2cc(OCCCCn3cc(COc4ccc(-c5oc(=O)c6c(Cl)cc(Cl)cc6c5-c5ccccc5)cc4)nn3)ccc2c(-c2ccccc2)c1-c1ccc(OS(=O)(=O)O)cc1 , IC50 = 180 nM
